assayText: folding stability dG unfold (combined trypsin and chymotrypsin); higher = more stable
valueType: folding stability dG unfold (kcal/mol)

residues: SAGGSATIKIPPGMDMEIDDVELNPDDKTVEVEITFGDGPMKARITPNGQKEIEMPNGQPFTIPIDSAGGSA [r15_111_TrROS]
valueType: folding stability dG unfold
resultModifier: <
experimentalValue: -1

residues: SAGGRVRLEEVEILPPLEDPEDNPDRPLLLLRVRARVEYDTPEGPREEERELVLVVSPERLEEALEALSAGG [r13_149_TrMRF]
valueType: folding stability dG unfold
resultModifier: =
experimentalValue: 1.37

residues: SAGGSMTISLDETIDVPEDVGVTFTFADDTVATAYFDPSEGKVRVVVYDPNKPGTLLGEFTLPVLPSAGGSA [r2_266_TrMRF]
valueType: folding stability dG unfold
resultModifier: =
experimentalValue: 1.29

residues: SAGSSTTETFTHPDGSVVTVTEEELPDGSYRVTSVSYEATPDGTVSALLRKPDGTIITVDSLEELFALESAG [r5_618_JUSTAS]
valueType: folding stability dG unfold
resultModifier: =
experimentalValue: 1.34

residues: SAGGKEKKPKVELKITSISEFEGGLVIEGEATTPTKKIKVLAVYDPSTGKITVWRETPEGIEPLAEFGSAGG [r13_445_TrMRF]
valueType: folding stability dG unfold
resultModifier: =
experimentalValue: 2.18

residues: KTRHIPIRDALDEAEELIDEGPRMVKITIYNNNGQKHEIETLKDILDKLKSNFPGMPPDNMKVQVEVIPPPS [r1_325_TrROS]
valueType: folding stability dG unfold
resultModifier: =
experimentalValue: -0.211

residues: SAGGMPVTVTLDLSDLTPEEIERLLTEAVEAHPDPAAVTVRVKTDDPALEAAVRAAAEALPAVAVTLESAGG [r13_718_JUSTAS]
valueType: folding stability dG unfold
resultModifier: =
experimentalValue: 0.0912

residues: SAGGSAGGSAPWRIRIRDPNGKKVEIPWEEVADKFGIPPEEMTLDDILEAFANNIDRIEIVDSAGGSAGGSA [r18_403_TrROS]
valueType: folding stability dG unfold
resultModifier: =
experimentalValue: 0.64

residues: SAMANITANYYDPETGKVLAKDLPLPNGDEVHVTPNPVTGTVTVEWDGPEEALEVIKAALPPDWKIYPLSAG [r14_252_TrMRF]
valueType: folding stability dG unfold
resultModifier: =
experimentalValue: 0.362

residues: SAGGSAGGSAMKVITLPENADINKVIEAVEAGSPILVKIVDPKSSKTTDLPLPSKEAVEKLSAGGSAGGSAG [r3_362_JUSTAS]
valueType: folding stability dG unfold
resultModifier: =
experimentalValue: -0.33

residues: SAGGPKPGEKWIARTKEGLVPITLEGDKVTITDALTGKKTVIPIPGASLEEIKELLLSEPDYEVYPESAGGS [r16_583_JUSTAS]
valueType: folding stability dG unfold
resultModifier: =
experimentalValue: -0.404

residues: SAGGSAGGSPIVVDSPEDIEKAIEEAIASGAKSIVEVGPNRVRVVFVIPGEPKVFVLELPLNGSAGGSAGGS [r12_368_TrMRF]
valueType: folding stability dG unfold
resultModifier: =
experimentalValue: 1.79

residues: SAGGSAGGSAGGNVRNLDISLDPEEGTIKIKATLPENGQTWEITIPVQIPLPPPPPGDNSAGGSAGGSAGGS [r10_331_TrROS]
valueType: folding stability dG unfold
resultModifier: =
experimentalValue: 0.424

residues: SAGGSAGGSAEKDVKLLDVEELEEERVALVEFPVDPKVVRIKFDKDMTIDEIKKKAKELAGSAGGSAGGSAG [r3_142_TrMRF]
valueType: folding stability dG unfold
resultModifier: =
experimentalValue: 0.0889

The values you see were collected from the supplement of paper PMC12764529.
